test system: Respiratory syncytial virus recombinant with luciferase (RSV-Luc5) in HEp-2 cells; test: microbe, parasite or virus in culture; type: cell-based; conditions: human respiratory syncytial virus, HEp-2, read-out: EC50 RSVFluc-Hep2 384 V2
Catalogue of EC50 readings, one per entry.
Expressed in µM, but write only the number.

Consider the following illustrative entries.
N#C[C@@]1(c2ccc3c(N)ncnn23)O[C@H](COC(=O)OCOP(=O)(O)O)[C@@H](O)[C@H]1O: 3.55
N#C[C@@]1(c2ccc3c(N)ncnn23)O[C@H](COC(=O)OCCl)[C@@H](O)[C@H]1O: 1.84
N#CC12CC(COC(=O)OC[C@H]3O[C@@](C#N)(c4ccc5c(N)ncnn45)[C@H](O)[C@@H]3O)(C1)C2: 1.51
COc1ccc(OC(=O)OC[C@H]2O[C@@](C#N)(c3ccc4c(N)ncnn34)[C@H](O)[C@@H]2O)cc1: 0.22
N#C[C@@]1(c2ccc3c(N)ncnn23)O[C@H](COC(=O)OCC2(c3ccccc3)CC2)[C@@H](O)[C@H]1O: 0.321

Here is another molecule to look at.
Problem: Tell us which EC50 value is on record for `COC(=O)Nc1ncnn2c([C@]3(C#N)O[C@H](COC(=O)OCC(C)(C)C)[C@@H](OC(=O)OC)[C@H]3OC(=O)OC)ccc12`
Result: 20.7

====

assay: DM logD
Catalogue of logD readings, one per entry.

CCOP(=O)(O)O[C@H]1[C@@H](O)[C@](C#N)(c2ccc3c(N)ncnn23)O[C@@H]1COC(=O)OC(C)C [Compound 144]: 0.4
N#C[C@@]1(c2ccc3c(N)ncnn23)O[C@H](COC(=O)OCCl)[C@@H](O)[C@H]1O [Compound 101]: 0.9

Problem: Tell us which logD value is on record for CN1[C@@H]2CC[C@H]1C[C@@H](OC(=O)OC[C@H]1O[C@@](C#N)(c3ccc4c(N)ncnn34)[C@H](O)[C@@H]1O)C2 [Compound 156]
Result: 0.3

====

assay: CC50 MT4 cytotoxicity (Cell-Titer Glo); type: cell-based; conditions: human
Catalogue of CC50 readings, one per entry.

Problem: Tell us which CC50 value is on record for N#C[C@@]1(c2ccc3c(N)ncnn23)O[C@H](COC(=O)OCOP(=O)(O)O)[C@@H](O)[C@H]1O [Compound 40]
Result: > 50 µM

Problem: Tell us which CC50 value is on record for N#C[C@@]1(c2ccc3c(N)ncnn23)O[C@H](COC(=O)OC2CCC(F)(F)CC2)[C@@H](O)[C@H]1O [Compound 84]
Result: > 50 µM

Problem: Tell us which CC50 value is on record for CC(C)(C)COC(=O)OC[C@H]1O[C@@](C#N)(c2ccc3c(N)ncnn23)[C@H](O)[C@@H]1O [Compound 3]
Result: > 50 µM

Problem: Tell us which CC50 value is on record for CC(C)OC(=O)OC[C@H]1O[C@@](C#N)(c2ccc3c(N)ncnn23)[C@H](OC(=O)C(C)C)[C@@H]1OC(=O)C(C)C [Compound 59]
Result: > 50 µM

Problem: Tell us which CC50 value is on record for CC1(COC(=O)OC[C@H]2O[C@@](C#N)(c3ccc4c(N)ncnn34)[C@H](O)[C@@H]2O)CCCC1 [Compound 123]
Result: > 50 µM

Problem: Tell us which CC50 value is on record for C=CCCC(=O)O[C@H]1[C@@H](OC(=O)CCC=C)[C@](C#N)(c2ccc3c(N)ncnn23)O[C@@H]1COC(=O)OC(C)C [Compound 134]
Result: > 50 µM

Problem: Tell us which CC50 value is on record for C[C@H](OC(=O)OC[C@H]1O[C@@](C#N)(c2ccc3c(N)ncnn23)[C@H](O)[C@@H]1O)c1ccccc1 [Compound 88]
Result: > 50 µM

Problem: Tell us which CC50 value is on record for Cc1ccc(C(C)C)c(OC(=O)OC[C@H]2O[C@@](C#N)(c3ccc4c(N)ncnn34)[C@H](O)[C@@H]2O)c1 [Compound 82]
Result: > 50 µM

Problem: Tell us which CC50 value is on record for CCCCCCCCCCOC(=O)OC[C@H]1O[C@@](C#N)(c2ccc3c(N)ncnn23)[C@H](O)[C@@H]1O [Compound 124]
Result: 27.6 µM

Problem: Tell us which CC50 value is on record for N#C[C@@]1(c2ccc3c(N)ncnn23)O[C@H](COC(=O)OC2CCCCCCC2)[C@@H](O)[C@H]1O [Compound 14]
Result: > 50 µM

Problem: Tell us which CC50 value is on record for CCOC(=O)OC[C@H]1O[C@@](C#N)(c2ccc3c(N)ncnn23)[C@H](O)[C@@H]1O [Compound 6]
Result: > 50 µM

Problem: Tell us which CC50 value is on record for CC1(OC(=O)OC[C@H]2O[C@@](C#N)(c3ccc4c(N)ncnn34)[C@H](O)[C@@H]2O)CCCCCC1 [Compound 55]
Result: > 50 µM

Problem: Tell us which CC50 value is on record for N#C[C@@]1(c2ccc3c(N)ncnn23)O[C@H](COC(=O)OCC2CCC2)[C@@H](O)[C@H]1O [Compound 53]
Result: > 50 µM

Problem: Tell us which CC50 value is on record for N#C[C@@]1(c2ccc3c(N)ncnn23)O[C@H](COC(=O)OC2CC(F)(F)C2)[C@@H](O)[C@H]1O [Compound 73]
Result: > 50 µM

====

tested on: Caco-2 cells (clone C2BBe1); assay: CACO-2 permeability; assay type: in vitro ADME; parameters: unit not given here; settings: basolateral to apical
endpoint: DM Caco2 B to A
Please respond with just the number, no unit label.

Consider the following illustrative entries.
COc1ccc(CCOC(=O)OC[C@H]2O[C@@](C#N)(c3ccc4c(N)ncnn34)[C@H](O)[C@@H]2O)cc1: 15.81
CCCC(=O)Nc1ncnn2c([C@]3(C#N)O[C@H](COC(=O)OCC(C)C)[C@@H](O)[C@H]3O)ccc12: 8.33

Here is another compound to look at.
Problem: Tell us which DM Caco2 B to A value is on record for CCC1O[C@H]2[C@@H](O1)[C@](C#N)(c1ccc3c(N)ncnn13)O[C@@H]2COC(=O)OC(C)C (stereo partly drawn)
Result: 16.82

====

test system: Caco-2 cells (clone C2BBe1); assay: CACO-2 permeability; assay type: in vitro ADME; set-up: unit not given here; conditions: apical to basolateral; donor pH 6.5, receiver pH 7.4
Catalogue of DM Caco2 A to B readings, one per entry.
Please respond with just the number, no unit label.

Consider the following illustrative entries.
N#C[C@@]1(c2ccc3c(N)ncnn23)O[C@H](COC(=O)OCCCC(=O)O)[C@@H](O)[C@H]1O: 0.05
CC(C)OC(=O)Nc1ncnn2c([C@]3(C#N)O[C@H](COC(=O)OC(C)C)[C@@H](OC(=O)OC(C)C)[C@H]3O)ccc12: 4.19
CC(=O)O[C@H]1[C@@H](OC(C)=O)[C@](C#N)(c2ccc3c(N)ncnn23)O[C@@H]1COC(=O)OC(C)C: 3.07
CCOC(=O)OC[C@H]1O[C@@](C#N)(c2ccc3c(N)ncnn23)[C@H](OC(=O)OCC)[C@@H]1OC(=O)OCC: 4.975

Problem: Write down the reported DM Caco2 A to B (system: Caco-2 cells (clone C2BBe1)) of `CC(C)OC(=O)OC[C@H]1O[C@@](C#N)(c2ccc3c(N)ncnn23)[C@H](OC(=O)OC(C)C)[C@@H]1OC(=O)OC(C)C`
Result: 7.77

Problem: Write down the reported DM Caco2 A to B (system: Caco-2 cells (clone C2BBe1)) of `CCOC(=O)OC[C@H]1O[C@@](C#N)(c2ccc3c(N)ncnn23)[C@H](O)[C@@H]1O`
Result: 0.21

Problem: Write down the reported DM Caco2 A to B (system: Caco-2 cells (clone C2BBe1)) of `N#C[C@@]1(c2ccc3c(N)ncnn23)O[C@H](COC(=O)OCc2ccccc2)[C@@H](O)[C@H]1O`
Result: 0.59

Problem: Write down the reported DM Caco2 A to B (system: Caco-2 cells (clone C2BBe1)) of `COC(C)(C)COC(=O)OC[C@H]1O[C@@](C#N)(c2ccc3c(N)ncnn23)[C@H](O)[C@@H]1O`
Result: 0.25

Problem: Write down the reported DM Caco2 A to B (system: Caco-2 cells (clone C2BBe1)) of `N#C[C@@]1(c2ccc3c(N)ncnn23)O[C@H](COC(=O)OC2CCC(F)(F)CC2)[C@@H](O)[C@H]1O`
Result: 0.27

Problem: Write down the reported DM Caco2 A to B (system: Caco-2 cells (clone C2BBe1)) of `COCC(C)(C)OC(=O)OC[C@H]1O[C@@](C#N)(c2ccc3c(N)ncnn23)[C@H](O)[C@@H]1O`
Result: 0.09

Problem: Write down the reported DM Caco2 A to B (system: Caco-2 cells (clone C2BBe1)) of `C=CCCOC(=O)O[C@H]1[C@@H](OC(=O)OCCC=C)[C@](C#N)(c2ccc3c(N)ncnn23)O[C@@H]1COC(=O)OC(C)C`
Result: 4.33

Problem: Write down the reported DM Caco2 A to B (system: Caco-2 cells (clone C2BBe1)) of CC(C)OC(=O)OC[C@H]1O[C@@](C#N)(c2ccc3c(N)ncnn23)[C@@H]2OC(c3ccccc3)O[C@@H]21 (stereo partly drawn)
Result: 11.73
